Biological target: Dipeptidyl peptidase 8/9 (Homo sapiens) (UniProt Q6V1X1+Q86TI2)
Sequence (Q6V1X1 whole entry, looked up): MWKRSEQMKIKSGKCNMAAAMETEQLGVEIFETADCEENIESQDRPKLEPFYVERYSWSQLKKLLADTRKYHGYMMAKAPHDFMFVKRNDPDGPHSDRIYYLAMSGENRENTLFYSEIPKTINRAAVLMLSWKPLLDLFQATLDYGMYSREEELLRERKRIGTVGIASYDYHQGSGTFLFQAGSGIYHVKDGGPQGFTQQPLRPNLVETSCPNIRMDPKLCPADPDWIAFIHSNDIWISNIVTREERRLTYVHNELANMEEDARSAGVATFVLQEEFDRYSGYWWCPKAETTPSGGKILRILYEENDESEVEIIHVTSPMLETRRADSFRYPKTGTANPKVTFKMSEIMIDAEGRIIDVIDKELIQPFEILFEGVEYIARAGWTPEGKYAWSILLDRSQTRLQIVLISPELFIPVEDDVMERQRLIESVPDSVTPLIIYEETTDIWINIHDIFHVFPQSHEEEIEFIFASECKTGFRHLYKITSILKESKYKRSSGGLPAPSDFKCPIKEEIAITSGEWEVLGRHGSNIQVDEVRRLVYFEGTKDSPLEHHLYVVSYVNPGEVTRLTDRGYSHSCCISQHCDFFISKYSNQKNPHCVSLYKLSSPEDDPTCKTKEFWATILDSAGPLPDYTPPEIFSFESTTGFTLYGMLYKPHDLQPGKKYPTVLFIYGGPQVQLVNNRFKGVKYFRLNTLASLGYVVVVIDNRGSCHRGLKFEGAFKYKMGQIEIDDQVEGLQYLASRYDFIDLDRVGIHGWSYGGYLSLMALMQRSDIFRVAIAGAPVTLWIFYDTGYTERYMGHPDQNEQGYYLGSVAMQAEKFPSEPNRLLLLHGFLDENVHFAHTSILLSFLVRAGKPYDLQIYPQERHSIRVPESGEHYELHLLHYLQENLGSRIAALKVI
Sequence (Q86TI2 whole entry, looked up): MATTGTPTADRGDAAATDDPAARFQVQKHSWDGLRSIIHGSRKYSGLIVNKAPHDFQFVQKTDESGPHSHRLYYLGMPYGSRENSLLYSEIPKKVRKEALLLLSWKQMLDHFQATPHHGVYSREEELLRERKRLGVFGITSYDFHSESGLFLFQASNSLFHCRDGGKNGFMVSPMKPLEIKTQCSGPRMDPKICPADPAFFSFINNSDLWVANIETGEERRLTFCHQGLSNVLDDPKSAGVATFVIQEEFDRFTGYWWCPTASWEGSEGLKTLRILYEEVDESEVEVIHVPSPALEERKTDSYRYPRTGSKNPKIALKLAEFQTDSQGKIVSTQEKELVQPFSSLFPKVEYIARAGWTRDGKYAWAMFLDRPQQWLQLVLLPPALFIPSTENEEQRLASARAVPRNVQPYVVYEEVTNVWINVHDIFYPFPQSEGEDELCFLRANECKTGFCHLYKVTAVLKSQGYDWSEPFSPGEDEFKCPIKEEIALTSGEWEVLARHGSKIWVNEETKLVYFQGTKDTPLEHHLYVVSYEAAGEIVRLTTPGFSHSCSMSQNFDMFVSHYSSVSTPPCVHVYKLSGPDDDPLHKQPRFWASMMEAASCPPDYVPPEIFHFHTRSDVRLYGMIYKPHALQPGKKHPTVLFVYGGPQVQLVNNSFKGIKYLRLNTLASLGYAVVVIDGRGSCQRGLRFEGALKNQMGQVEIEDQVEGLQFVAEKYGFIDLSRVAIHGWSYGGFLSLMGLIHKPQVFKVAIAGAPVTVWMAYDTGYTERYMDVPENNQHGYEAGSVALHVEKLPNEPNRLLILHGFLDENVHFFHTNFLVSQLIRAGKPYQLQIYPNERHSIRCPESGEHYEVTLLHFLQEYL
Experiment: Inhibition of full length recombinant human DPP-8/9 expressed in HEK293 cells at 10 uM incubated for 1 hr
Format: cell-based
Measured Metric: inhibition (%)
Give bare numbers, in %.

Known results for compounds:
State, in one line, measured inhibition of "CC#CCn1c(N2CCCNCC2)nc2c1c(=O)n(CCCN1CCC(C(=O)OC(C)C)CC1)c(=O)n2C"
22.5

State, in one line, measured inhibition of "CC#CCn1c(N2CCC[C@@H](N)C2)nc2c1c(=O)n(CCCN1CCC(C(=O)OC(C)C)CC1)c(=O)n2C"
16

State, in one line, measured inhibition of "CC#CCn1c(N2CCC[C@@H](N)C2)nc2c1c(=O)n(CCCN1CCC(C(=O)Oc3ccccc3)CC1)c(=O)n2C"
26.3

State, in one line, measured inhibition of "CC#CCn1c(N2CCC[C@@H](N)C2)nc2c1c(=O)n(CCCC1CCN(C(=O)OC(C)C)CC1)c(=O)n2C"
36.8

State, in one line, measured inhibition of "CC#CCn1c(N2CCC[C@@H](N)C2)nc2c1c(=O)n(CCCN1CCC(C(=O)Nc3ccccc3)CC1)c(=O)n2C"
36.8

Go through the items and report each one's inhibition.
1. CC#CCn1c(N2CCC[C@@H](N)C2)nc2c1c(=O)n(CCCN1CCC(C(=O)N(C)C)CC1)c(=O)n2C
2. CC#CCn1c(N2CCC[C@@H](N)C2)nc2c1c(=O)n(CCCCC1CCN(C(=O)OC(C)C)CC1)c(=O)n2C
3. CC#CCn1c(N2CCC[C@@H](N)C2)nc2c1c(=O)n(CCCN1CCC(C(=O)OC)CC1)c(=O)n2C

1. 38.1
2. 31.6
3. 21.1

---

Molecular target: Glucose-dependent insulinotropic receptor (Homo sapiens)
Assay: Agonist activity at CREB-LBD and GAL4-DBD fused human GPR119 expressed in HEK293 cells at 1 uM by luciferase reporter gene assay relative to AR231453
Type: functional, cell-based
Measured Metric: Activity (%)
Numbers only, in %.

Known results for compounds:
State, in one line, measured Activity of "CC#CCn1c(N2CCC[C@@H](N)C2)nc2c1c(=O)n(CCCN1CCC(C(=O)OCC)CC1)c(=O)n2C"
51.4

State, in one line, measured Activity of "CC#CCn1c(N2CCC[C@@H](N)C2)nc2c1c(=O)n(CC1CCN(C(=O)OC(C)C)CC1)c(=O)n2C"
79.3

State, in one line, measured Activity of "CC#CCn1c(N2CCC[C@@H](N)C2)nc2c1c(=O)n(CCCN1CCC(C(=O)N(C)C)CC1)c(=O)n2C"
61.3

State, in one line, measured Activity of "CC#CCn1c(N2CCCNCC2)nc2c1c(=O)n(CCCN1CCC(C(=O)OC(C)C)CC1)c(=O)n2C"
69.6

State, in one line, measured Activity of "CC#CCn1c(N2CCC[C@@H](N)C2)nc2c1c(=O)n(CCCN1CCC(C(=O)OC3CCCC3)CC1)c(=O)n2C"
42.7

Please look at the following compound next.
State, in one line, measured Activity of "CC#CCn1c(N2CCC[C@@H](N)C2)nc2c1c(=O)n(CCCN1CCC(C(=O)Nc3ccccc3)CC1)c(=O)n2C"
81.5

---

Target: UniProt:Q8TDV5
Sequence (Q8TDV5 whole entry): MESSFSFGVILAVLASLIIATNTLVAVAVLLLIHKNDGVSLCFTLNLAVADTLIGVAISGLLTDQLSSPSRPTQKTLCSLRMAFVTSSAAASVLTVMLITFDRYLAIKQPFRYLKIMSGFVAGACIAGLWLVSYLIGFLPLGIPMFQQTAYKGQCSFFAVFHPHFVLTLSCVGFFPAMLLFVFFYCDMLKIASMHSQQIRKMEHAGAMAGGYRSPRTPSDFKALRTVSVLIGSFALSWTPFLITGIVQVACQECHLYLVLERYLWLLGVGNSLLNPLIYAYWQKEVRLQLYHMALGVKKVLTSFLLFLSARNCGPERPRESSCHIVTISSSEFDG
Test: Agonist activity at CREB-LBD and GAL4-DBD fused human GPR119 expressed in HEK293 cells by luciferase reporter gene assay
I'd be grateful if you could share measured pEC50 for these entries.
Give bare numbers, as −log10 of the molar value.

Known results for molecules:
# return pEC50 of "CC#CCn1c(N2CCC[C@@H](N)C2)nc2c1c(=O)n(CC1CCN(C(=O)OC(C)C)CC1)c(=O)n2C" (system: UniProt:Q8TDV5)
5.72

# return pEC50 of "CC(C)c1noc(C2CCN(c3ncnc(Nc4ccc(S(C)(=O)=O)cc4F)c3[N+](=O)[O-])CC2)n1" (system: UniProt:Q8TDV5)
6.15

Please look at the following molecule next.
# return pEC50 of "CC#CCn1c(N2CCC[C@@H](N)C2)nc2c1c(=O)n(CCCN1CCC(C(=O)Nc3ccccc3)CC1)c(=O)n2C" (system: UniProt:Q8TDV5)
6.02

---

I'd be grateful if you could share measured inhibition for these entries.
Target: Dipeptidyl peptidase 8/9 (Homo sapiens) (UniProt Q6V1X1+Q86TI2)
Assay: Inhibition of full length recombinant human DPP-8/9 expressed in HEK293 cells at 10 uM incubated for 1 hr
Format: cell-based
Answers are plain numbers, in %.

State, in one line, measured inhibition of "CC#CCn1c(N2CCC[C@@H](N)C2)nc2c1c(=O)n(CC1CCN(C(=O)OC(C)C)CC1)c(=O)n2C"
0

State, in one line, measured inhibition of "CC#CCn1c(N2CCC[C@@H](N)C2)nc2c1c(=O)n(CCC1CCN(C(=O)OC(C)C)CC1)c(=O)n2C"
10.5

Please look at the following compound next.
State, in one line, measured inhibition of "CC#CCn1c(N2CCC[C@@H](N)C2)nc2c1c(=O)n(CCCN1CCC(C(=O)OCC)CC1)c(=O)n2C"
12.5

---

I'd be grateful if you could share measured Activity for these entries.
Biological target: Glucose-dependent insulinotropic receptor (Homo sapiens) (UniProt Q8TDV5)
Assay: Agonist activity at CREB-LBD and GAL4-DBD fused human GPR119 expressed in HEK293 cells at 1 uM by luciferase reporter gene assay relative to AR231453
Format: functional, cell-based
Answers are plain numbers, in %.

State, in one line, measured Activity of "CC#CCn1c(N2CCC(N)CC2)nc2c1c(=O)n(CCCN1CCC(C(=O)OC(C)C)CC1)c(=O)n2C"
14.5

State, in one line, measured Activity of "CC#CCn1c(N2CCC[C@@H](N)C2)nc2c1c(=O)n(CCCCN1CCC(C(=O)OC(C)C)CC1)c(=O)n2C"
9.8

State, in one line, measured Activity of "CC#CCn1c(N2CCC[C@@H](N)C2)nc2c1c(=O)n(CCCCC1CCN(C(=O)OC(C)C)CC1)c(=O)n2C"
61.8

Go through the items and report each one's Activity.
1. CC#CCn1c(N2CCC[C@@H](N)C2)nc2c1c(=O)n(CCCN1CCC(C(=O)Nc3ccc(C)cc3)CC1)c(=O)n2C
2. CC#CCn1c(N2CCC[C@@H](N)C2)nc2c1c(=O)n(CCN1CCC(C(=O)OC(C)C)CC1)c(=O)n2C

1: 26.2; 2: 54.2

Go through the items and report each one's Activity.
1. CC#CCn1c(N2CCC[C@@H](N)C2)nc2c1c(=O)n(CCCN1CCC(C(=O)Nc3ccc(Cl)cc3)CC1)c(=O)n2C
2. CC#CCn1c(N2CCC[C@@H](N)C2)nc2c1c(=O)n(CCCN1CCC(C(=O)Nc3ccc(Br)cc3)CC1)c(=O)n2C
3. CC#CCn1c(N2CCC[C@@H](N)C2)nc2c1c(=O)n(CCCN1CCC(C(=O)OC3CCC3)CC1)c(=O)n2C
4. CC#CCn1c(N2CCC[C@@H](N)C2)nc2c1c(=O)n(CCCN1CCC(C(=O)Nc3ccc(C#N)cc3)CC1)c(=O)n2C
5. CC#CCn1c(N2CCC[C@@H](N)C2)nc2c1c(=O)n(CCCN1CCC(C(=O)Nc3ccc(OC)cc3)CC1)c(=O)n2C
6. CC#CCn1c(N2CCC[C@@H](N)C2)nc2c1c(=O)n(CCCN1CCC(C(=O)OC3CCCCC3)CC1)c(=O)n2C
7. CC#CCn1c(N2CCC[C@@H](N)C2)nc2c1c(=O)n(CCCN1CCC(C(=O)OC)CC1)c(=O)n2C

1: 18.9; 2: 27.9; 3: 54.8; 4: 68.8; 5: 44.4; 6: 29.9; 7: 74.5

---

I'd be grateful if you could share measured Activity for these entries.
Biological target: UniProt Q8TDV5
Sequence (whole entry): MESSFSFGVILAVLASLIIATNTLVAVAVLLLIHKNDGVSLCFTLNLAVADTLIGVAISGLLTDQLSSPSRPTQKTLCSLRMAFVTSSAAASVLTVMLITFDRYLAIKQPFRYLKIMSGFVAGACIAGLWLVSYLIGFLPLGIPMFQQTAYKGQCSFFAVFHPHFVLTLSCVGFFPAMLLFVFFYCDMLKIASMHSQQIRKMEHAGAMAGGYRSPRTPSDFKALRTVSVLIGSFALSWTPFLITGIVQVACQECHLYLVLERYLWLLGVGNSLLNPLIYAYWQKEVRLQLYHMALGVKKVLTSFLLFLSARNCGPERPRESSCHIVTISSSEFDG
Experiment: Agonist activity at CREB-LBD and GAL4-DBD fused human GPR119 expressed in HEK293 cells at 1 uM by luciferase reporter gene assay relative to AR231453
Type: functional, cell-based
Numbers only, in %.

Known results for compounds:
State, in one line, measured Activity of "CC#CCn1c(N2CC[C@@H](N)C2)nc2c1c(=O)n(CCCN1CCC(C(=O)OC(C)C)CC1)c(=O)n2C"
63.9

State, in one line, measured Activity of "CC#CCn1c(N2CCC[C@@H](N)C2)nc2c1c(=O)n(CCCN1CCC(C(=O)OC(C)C)CC1)c(=O)n2C"
60.4

State, in one line, measured Activity of "CC#CCn1c(N2CCC[C@@H](N)C2)nc2c1c(=O)n(CCCN1CCC(C(=O)Nc3ccc(F)cc3)CC1)c(=O)n2C"
16.2

Please look at the following compound next.
State, in one line, measured Activity of "CC#CCn1c(N2CCC[C@@H](N)C2)nc2c1c(=O)n(CCCN1CCC(C(=O)Oc3ccccc3)CC1)c(=O)n2C"
70.7
